- assayComment: Toxicity liver stage against HepG2, at 10uM
- Format: cell-based
- Parameters: test concentration 10 uM, cell line HepG2-A16-CD81EGFP
- experimentalConditions: human, HepG2-A16-CD81EGFP cells; read-out: INHIBITION
readoutName: cytotoxicity at 10 µM (%)
State just the number; it will be interpreted in %.

The recorded cytotoxicity at 10 µM for entry COc1ccc(C(=O)N2CCCC2c2noc(C(C)C)n2)nn1 (stereo unspecified) equals -4.01

The recorded cytotoxicity at 10 µM for entry `CCOc1ncccc1Cn1cc(-c2ccc(CO)o2)nn1` equals -1.91

The recorded cytotoxicity at 10 µM for entry `COc1ccc(C(=O)N2CCC(Nc3cccnn3)CC2)c(OC)c1` equals 4.67

The recorded cytotoxicity at 10 µM for entry `O=C(c1ccoc1)N(Cc1ccncc1)C1CC1` equals 1.45

The recorded cytotoxicity at 10 µM for entry `CCN(CC)[C@@H]1CN(S(=O)(=O)c2cn(C)cn2)[C@@H]2CCCO[C@H]12` equals -147

The recorded cytotoxicity at 10 µM for entry `Cn1cc(C(=O)N2C[C@@H]3CN(S(C)(=O)=O)CCO[C@@H]3C2)cn1` equals 8.9

The recorded cytotoxicity at 10 µM for entry Cc1ncsc1CN(C)C(=O)C(CC(C)C)N1CCCCC1=O (stereo unspecified) equals 3.28

The recorded cytotoxicity at 10 µM for entry `Cn1cc(CN2CCC(c3ncc(Cl)cc3S(C)(=O)=O)CC2)cn1` equals -0.83

The recorded cytotoxicity at 10 µM for entry O=C(c1cccc(Oc2ccccc2)c1)N1CCCC(O)(CO)CC1 (stereo unspecified) equals -3.17

The recorded cytotoxicity at 10 µM for entry `Cc1noc(C)c1CC(=O)N1CCC(Nc2cccnn2)CC1` equals -15.8

The recorded cytotoxicity at 10 µM for entry Cc1cc(C(=O)N2CCc3nc(C4CCCN4)ncc3C2)cs1 (stereo unspecified) equals 2.56

###

So I've got a bunch of compounds here, and I need their cytotoxicity at 10 µM values.
- assayComment: Toxicity liver stage against HepG2, at 10uM
- Type: cell-based
- Set-up: test concentration 10 uM, cell line HepG2-A16-CD81EGFP
- experimentalConditions: human, HepG2-A16-CD81EGFP cells; read-out: INHIBITION
State just the number; it will be interpreted in %.

The recorded cytotoxicity at 10 µM for entry `O=C(CCCn1cnnn1)N1CCC(c2ccncc2)CC1` equals -4.8

The recorded cytotoxicity at 10 µM for entry `COc1ccccc1-n1nc(C(C)C)nc1Cc1nnc(N)s1` equals 6.48

The recorded cytotoxicity at 10 µM for entry Cc1nn(CC(=O)N2CCCCC2Cn2cccn2)c(C)c1Cl (stereo unspecified) equals 2.35

The recorded cytotoxicity at 10 µM for entry `CN(CCN(C)S(=O)(=O)CC1CCOCC1)c1ccccc1` equals -9.65

The recorded cytotoxicity at 10 µM for entry `CCn1ccnc1CN1CCN(CCOc2ccccc2OC)CC1` equals -8.83

The recorded cytotoxicity at 10 µM for entry Cc1ncc(C(=O)N2CCCC2(C)C(=O)N2CCOCC2)c(C)n1 (stereo unspecified) equals -0.681

###

- assayComment: Toxicity liver stage against HepG2, at 10uM
- Assay type: cell-based
- Set-up: test concentration 10 uM, cell line HepG2-A16-CD81EGFP
- experimentalConditions: human, HepG2-A16-CD81EGFP cells; read-out: INHIBITION
So I've got a bunch of compounds here, and I need their cytotoxicity at 10 µM values.
State just the number; it will be interpreted in %.

The recorded cytotoxicity at 10 µM for entry `CN(C)C(=O)NC[C@H]1OC[C@@H]2CCN(Cc3ccoc3)C[C@@H]21` equals 2.82

The recorded cytotoxicity at 10 µM for entry `Cc1nnc(N2CCC(CNC(=O)OC(C)(C)C)CC2)c(C#N)c1C` equals 2.6

The recorded cytotoxicity at 10 µM for entry CNS(=O)(=O)c1ccc(C(=O)N2CCCCC2c2ccc(C)cc2)o1 (configuration not stated) equals -9.8

The recorded cytotoxicity at 10 µM for entry `COC[C@@]12CCO[C@@H]1CCN(C(=O)COc1ccccc1OC)C2` equals -8.89

The recorded cytotoxicity at 10 µM for entry O=C1CC2(CCN(Cc3ccccn3)C2)CN1c1cncnc1 (configuration not stated) equals 2.26

The recorded cytotoxicity at 10 µM for entry `O=C(COc1cccc(F)c1)N1C[C@H](CO)C[C@H](CN2CCCC2)C1` equals 1.76

The recorded cytotoxicity at 10 µM for entry CCCc1cc(CNC(=O)C2CCOc3ccccc3C2)on1 (configuration not stated) equals -3.8

The recorded cytotoxicity at 10 µM for entry O=C(Cn1[nH]c2ccccc2c1=O)N1CCCC(CC2CC2)(C(=O)O)C1 (configuration not stated) equals 3.15

The recorded cytotoxicity at 10 µM for entry `CC(=O)Nc1nc(C(=O)NCCOc2ccccc2F)cs1` equals -6.19

The recorded cytotoxicity at 10 µM for entry `Cc1nn(C)cc1C1=NS(=O)(=O)N(C)C(C(=O)Nc2ccc(Cl)cc2)=C1` equals 7.9

The recorded cytotoxicity at 10 µM for entry CC(C)C1CN(C(=O)c2nccnc2N)CCS1 (configuration not stated) equals -8.54

The recorded cytotoxicity at 10 µM for entry CSCC(CCO)NC(=O)Nc1ccc(C)cc1C (configuration not stated) equals 1.82

The recorded cytotoxicity at 10 µM for entry Fc1cccc2c1CCC2NCc1ccc(N2CCOCC2)cc1 (configuration not stated) equals -14.7

The recorded cytotoxicity at 10 µM for entry CC1CCCN(C(=O)CCc2cccnc2)C1 (configuration not stated) equals -3.4

The recorded cytotoxicity at 10 µM for entry COc1cccc(C2CN(CCc3ccncc3)CCO2)c1 (configuration not stated) equals -10.1

The recorded cytotoxicity at 10 µM for entry COCC1CN(C(=O)Nc2cc(Cl)cc(Cl)c2)CCO1 (configuration not stated) equals -4.44

The recorded cytotoxicity at 10 µM for entry OC1(CN2CCN(c3cccc(C(F)(F)F)c3)CC2)CNCCOC1 (configuration not stated) equals -5.13

The recorded cytotoxicity at 10 µM for entry `O=C(c1cc(C2CC2)on1)N1C[C@@H]2COC[C@]2(COc2cccnc2)C1` equals -89.7

The recorded cytotoxicity at 10 µM for entry `CCn1cc(CN(C)C(=O)c2cc(C(F)(F)F)n(C)n2)cn1` equals 10.4

The recorded cytotoxicity at 10 µM for entry O=C(C1CCCOC1)N(CC(F)F)c1cccc(Cl)c1 (configuration not stated) equals 8.27

The recorded cytotoxicity at 10 µM for entry `CCC(=O)Nc1cccc(OCC(=O)N(C)Cc2cc(COC)[nH]n2)c1` equals 1.79

The recorded cytotoxicity at 10 µM for entry `CC(C)N1C[C@@H](CO)[C@H](c2ccccc2)S1(=O)=O` equals -1.94

The recorded cytotoxicity at 10 µM for entry Fc1cccc(-c2nnn3c2COC(CNCc2cccs2)C3)c1 (configuration not stated) equals 1.07

The recorded cytotoxicity at 10 µM for entry O=C(CO)N1CCCC2(CCN(c3ccsc3)C2=O)C1 (configuration not stated) equals -66.8

The recorded cytotoxicity at 10 µM for entry COCC(=O)N1Cc2nccn2CC(COc2cccnc2)C1 (configuration not stated) equals 5.41

The recorded cytotoxicity at 10 µM for entry CNc1nc2c(s1)C(c1cccc(F)c1F)CC(=O)N2 (configuration not stated) equals -2.15

The recorded cytotoxicity at 10 µM for entry O=C(NCC1OCCc2cn(CC3CC3)nc21)c1ccsc1 (configuration not stated) equals 6.69

The recorded cytotoxicity at 10 µM for entry `COc1ccc(Nc2ncccc2C#N)cc1N1CCCC1=O` equals 6.86

The recorded cytotoxicity at 10 µM for entry O=C(C1CCCN1c1ncnc2ccsc12)N1CCSCC1 (configuration not stated) equals 3

The recorded cytotoxicity at 10 µM for entry `CCCc1nc(C(=O)NCCCn2nnc3ccccc32)cs1` equals -14

The recorded cytotoxicity at 10 µM for entry `Cc1ccc(CN(CCCN(C)C)Cc2cnc(C)n2C)o1` equals 9.96

The recorded cytotoxicity at 10 µM for entry O=C(Cn1nc2c(cc1=O)CCCC2)NC(C(=O)O)c1ccccc1 (configuration not stated) equals 5.7

The recorded cytotoxicity at 10 µM for entry `CCc1nnc(CN(C)Cc2cccc(C(=O)Nc3nccs3)c2)o1` equals -2.97

The recorded cytotoxicity at 10 µM for entry `Cc1ncccc1OCC(=O)N1CCN[C@H]2CS(=O)(=O)C[C@H]21` equals 13.1

The recorded cytotoxicity at 10 µM for entry Cc1noc(CCCC(=O)NC(C)c2cn(-c3ccccc3)nn2)n1 (configuration not stated) equals -8.18

The recorded cytotoxicity at 10 µM for entry COC1C[C@@H]2CN(C(=O)c3cc4ccc(F)cc4[nH]3)C[C@@H]2C1 (some centres not stated) equals 2.93

The recorded cytotoxicity at 10 µM for entry `Cc1cnc(C)c(-c2cc(O)c3c(c2)CN(Cc2nccs2)CCO3)n1` equals 1.69

The recorded cytotoxicity at 10 µM for entry `O=C(NCCC1=CCCCC1)c1[nH]nc2c1CCCC2` equals -80.4

The recorded cytotoxicity at 10 µM for entry `CS(=O)(=O)NCc1cn2c(n1)CN(C(=O)c1ccc[nH]1)CC2` equals 5.69

The recorded cytotoxicity at 10 µM for entry `COc1cccc(S(=O)(=O)N2CCn3cnc(COCC4CC4)c3C2)c1` equals -18.9

The recorded cytotoxicity at 10 µM for entry c1cnn(CC2CCCN2Cc2ccc(-n3cccn3)cc2)c1 (configuration not stated) equals -4.8

The recorded cytotoxicity at 10 µM for entry CC(C)c1cc(NC(CCO)c2ccccc2)n2nccc2n1 (configuration not stated) equals -45.4

The recorded cytotoxicity at 10 µM for entry `CN(CC(=O)NCC(F)(F)F)C(=O)c1ccc(=O)[nH]c1` equals -4.39

The recorded cytotoxicity at 10 µM for entry `COCC(=O)N1CCN(S(=O)(=O)c2cccs2)[C@H]2CS(=O)(=O)C[C@H]21` equals 1.44

The recorded cytotoxicity at 10 µM for entry `COCCN(CCN(C)C)C(=O)NC1CC1` equals -1.78

The recorded cytotoxicity at 10 µM for entry `O=C(Cn1ccc(C(=O)O)n1)Nc1c(Cl)cccc1Cl` equals 7.07

The recorded cytotoxicity at 10 µM for entry `CN(C)CCN1CCCC12CCN(Cc1nccn1C)CC2` equals -99.1

Every entry's value here was drawn from ChEMBL document CHEMBL4513216.
